Test: Primary qHTS to identify inhibitors of SARS-CoV-2 cell entry (AID 1645846); also: nearly all actives have a fitted effect of over 45% in size
Details: SARS-CoV-2 pseudovirus cell entry assay, luminescence
Inconclusive results are not listed. Calls of active or inactive are those of the source. Calls follow the shape of the full dose curve.
Outcome codes: yes (active), no (inactive)

INSERT INTO measurements (molecule, discrete_label) VALUES
  ('Cn1nnc(-c2ccc(-c3ccc(N4C[C@@H](CO)OC4=O)cc3F)cn2)n1', 'no'),
  ('CNC(=O)c1c(C)oc2cc(Oc3ncnc4cc(OC)c(OC)cc34)ccc12', 'no'),
  ('Cc1cncc(CN2CCC(=C3c4ccc(Cl)cc4CCc4cccnc43)CC2)c1', 'yes'),
  ('N=C(N)c1ccc2nc(-c3cc(CC(=O)N[C@@H](CC(=O)O)C(=O)O)cc(-c4cc(S(N)(=O)=O)ccc4O)c3O)[nH]c2c1', 'no'),
  ('OC(c1ccc(-c2ccc(CN3CCN(Cc4ccncc4)CC3)cc2)c(F)c1)(C(F)(F)F)C(F)(F)F', 'no'),
  ('CCn1c(=O)c(-c2ccc(-c3cncc(C)n3)cc2Cl)cc2cnc(NCCC3CCN(C)CC3)nc21', 'yes'),
  ('CCN1CCN(Cc2ccc(NC(=O)c3ccc(C)c(NC(=O)c4cncc(-c5cccs5)c4)c3)cc2C(F)(F)F)CC1', 'yes'),
  ('Nc1ncnc2c1c(COc1cccc(Cl)c1)nn2C1CCOCC1', 'no'),
  ('O=C(O)c1ccc(-c2c[nH]c3ncc(-c4ccccc4)cc23)cc1C1CCCC1', 'yes'),
  ('CCOC(=O)N[C@@H]1CC[C@@H]2[C@@H](C1)C[C@H]1C(=O)O[C@H](C)[C@H]1[C@H]2/C=C/c1ccc(-c2cccc(F)c2)cn1', 'yes'),
  ('CN[C@@H]1[C@H](O[C@H]2[C@H](O[C@@H]3[C@@H](O)[C@H](O)[C@@H](N=C(N)N)[C@H](O)[C@H]3N=C(N)N)O[C@@H](C)[C@]2(O)C=O)O[C@@H](CO)[C@H](O)[C@H]1O', 'no'),
  ('Nc1nc(OC(c2ccc(-c3cccc(F)c3)cc2)C(F)(F)F)cc(-c2ccc(C[C@@H](N)C(=O)O)cc2)n1 (stereo partly drawn)', 'no'),
  ('Fc1ccc(-c2csc3ncnc(NCc4ccc5c(c4)OCO5)c23)cc1', 'yes'),
  ('CC[C@H]1OC(=O)[C@H](C)[C@@H](O[C@H]2C[C@@](C)(OC)[C@@H](O)[C@H](C)O2)[C@H](C)[C@@H](O[C@@H]2O[C@H](C)C[C@H](N(C)C)[C@H]2O)[C@](C)(O)C[C@@H](C)C(=O)[C@H](C)[C@@H](O)[C@]1(C)O', 'no'),
  ('CC1=C(CO)C(=O)O[C@@H]([C@@H](C)[C@H]2CC[C@H]3[C@@H]4C[C@H]5O[C@]56[C@@H](O)C=CC(=O)[C@]6(C)[C@H]4CC[C@]23C)C1', 'yes'),
  ('CC(=O)[C@]1(N)Cc2c(O)c3c(c(O)c2[C@@H](O[C@H]2C[C@H](O)[C@H](O)CO2)C1)C(=O)c1ccccc1C3=O', 'no'),
  ('C[C@@H]1COCCN1c1cc(C2(S(C)(=N)=O)CC2)nc(-c2ccnc3[nH]ccc23)n1 (stereo partly drawn)', 'yes'),
  ('C[C@]12CC[C@H](O)CC1=CC[C@@H]1[C@@H]2CC[C@]2(C)C(c3cccnc3)=CC[C@@H]12', 'no');

// data source = PubChem BioAssay (NCATS)
